- targetOfAssay: Cathepsin K (Homo sapiens)
- Sequence (P43235 whole entry): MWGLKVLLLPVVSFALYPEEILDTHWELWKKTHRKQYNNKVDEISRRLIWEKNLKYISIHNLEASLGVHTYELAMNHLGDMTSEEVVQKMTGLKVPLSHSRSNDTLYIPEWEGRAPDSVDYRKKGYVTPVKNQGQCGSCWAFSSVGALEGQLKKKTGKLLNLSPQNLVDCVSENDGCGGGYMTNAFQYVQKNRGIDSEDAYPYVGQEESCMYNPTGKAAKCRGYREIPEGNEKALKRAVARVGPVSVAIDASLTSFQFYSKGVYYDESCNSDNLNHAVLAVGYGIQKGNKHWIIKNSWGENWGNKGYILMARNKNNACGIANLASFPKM
- assayNotes: Inhibition of human recombinant cathepsin K using z-LR-AFC as substrate by fluorescence assay
measurementName: IC50 (nM)

a. C[C@@H]1CC[C@H](NC(=O)[C@H](CC2CCCCC2)NC(=O)c2ccco2)C(=O)CN1S(=O)(=O)c1ccccn1
b. C[C@@H]1CC[C@H](NC(=O)[C@@H](CC2(C)CCCCC2)NC(=O)c2ccco2)C(=O)CN1S(=O)(=O)c1ccccn1
c. C[C@@H]1CC[C@H](NC(=O)[C@H](CC2CCC(C)(C)CC2)NC(=O)c2ccco2)C(=O)CN1S(=O)(=O)c1ccccn1
d. C[C@@H]1CC[C@H](NC(=O)[C@H](CCC2CCCC2)NC(=O)N2CCOCC2)C(=O)CN1S(=O)(=O)c1ccccn1
QUERY: Sort these compounds on IC50 so the largest reading comes first. Rank the items, then write their labels in that order.
RESULT: c, b, d, a

----------
- targetOfAssay: Cathepsin S (Homo sapiens)
- Sequence (P25774 whole entry): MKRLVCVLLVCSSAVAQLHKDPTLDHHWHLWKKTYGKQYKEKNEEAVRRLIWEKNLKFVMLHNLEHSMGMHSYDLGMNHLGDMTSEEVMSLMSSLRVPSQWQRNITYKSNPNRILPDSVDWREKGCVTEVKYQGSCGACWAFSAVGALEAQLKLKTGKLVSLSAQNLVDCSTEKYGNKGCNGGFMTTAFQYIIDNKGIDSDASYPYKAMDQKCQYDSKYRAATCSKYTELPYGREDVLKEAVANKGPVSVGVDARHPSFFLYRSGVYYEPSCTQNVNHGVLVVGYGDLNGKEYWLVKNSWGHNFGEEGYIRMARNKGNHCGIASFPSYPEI
- assayNotes: Inhibition of human recombinant cathepsin S using Ac-KQLR-AMC as substrate by fluorescence assay
measurementName: IC50 (nM)

>>> experimentalvalue("C[C@@H]1CC[C@H](NC(=O)[C@H](CC2CCCC2)NC(=O)c2ccco2)C(=O)CN1S(=O)(=O)c1ccccn1")
0.76

I. C[C@@H]1CC[C@H](NC(=O)[C@H](CC(C)(C)C)NC(=O)c2ccco2)C(=O)CN1S(=O)(=O)c1ccccn1
II. CC(C)C[C@H](NC(=O)c1cc2cc(OCCN3CCOCC3)ccc2o1)C(=O)N[C@H]1CCCN(C(=O)Cc2cccc(-c3ccccn3)c2)CC1=O
QUERY: Between I and II , which one shows the smaller IC50 number? Provide the label of your selected option as the answer.
RESULT: I
(I: 1.3 nM, II: 8.3 nM)

----------
- targetOfAssay: Cathepsin S (Homo sapiens)
- assayNotes: Inhibition of human recombinant cathepsin S using Ac-KQLR-AMC as substrate by fluorescence assay
pIC50: −log10 of the molar value.
measurementName: pIC50

Solved entries:
>>> experimentalvalue("C[C@@H]1CC[C@H](NC(=O)[C@H](CC2CCC(C)(C)CC2)NC(=O)c2ccco2)C(=O)CN1S(=O)(=O)c1ccccn1")
8.92
>>> experimentalvalue("C[C@@H]1CC[C@H](NC(=O)[C@H](CC23CCC(CC2)C3(C)C)NC(=O)N2CCOCC2)C(=O)CN1S(=O)(=O)c1ccccn1")
8.82
>>> experimentalvalue("C[C@@H]1CC[C@H](NC(=O)[C@@H](CC2(C)CCCCC2)NC(=O)c2ccco2)C(=O)CN1S(=O)(=O)c1ccccn1")
7.43

A. C[C@@H]1CC[C@H](NC(=O)[C@@H](CC2(C)CCCC2)NC(=O)c2ccco2)C(=O)CN1S(=O)(=O)c1ccccn1
B. C[C@@H]1CC[C@H](NC(=O)[C@H](CC2=CCCC2)NC(=O)c2ccco2)C(=O)CN1S(=O)(=O)c1ccccn1
C. CC1CCC(C[C@H](NC(=O)c2ccco2)C(=O)N[C@H]2CC[C@@H](C)N(S(=O)(=O)c3ccccn3)CC2=O)CC1 (stereo partly drawn)
D. C[C@@H]1CC[C@H](NC(=O)[C@H](CC2(C)CCCCC2)NC(=O)c2ccco2)C(=O)CN1C(=O)c1ccccn1
QUERY: # rank_down: sort by pIC50, max first Ranked list of labels, please, in the requested order.
RESULT: C, D, B, A
(C: 9.30, D: 8.82, B: 8.31, A: 7.00)
